- Tested on: HEY
- Assay name: Antiproliferative activity against human HEY cells after 3 to 7 days by SRB assay
- Assay type: functional, cell-based
The source made the active and inactive calls. The calls are words filed in the database; no cut-off is given here.
Reported endpoint: Activity

>>> result("C=C/C=C\\[C@H](C)[C@H](OC(=O)NCCCNC(=O)c1cccc(N=[N+]=[N-])c1)[C@@H](C)[C@H](O)[C@@H](C)C/C(C)=C\\[C@H](C)[C@@H](O)[C@@H](C)/C=C\\[C@@H](O)C[C@@H]1OC(=O)[C@H](C)[C@@H](O)[C@H]1C")
"Active"
>>> result("C=C/C=C\\[C@H](C)[C@H](OC(N)=O)[C@@H](C)[C@H](O)[C@@H](C)C/C(C)=C\\[C@H](C)[C@@H](O)[C@@H](C)/C=C\\[C@@H](O)C[C@@H]1OC(=O)[C@H](C)[C@@H](O)[C@H]1C [DISERMOLIDE]")
"Active"
